Target: Phosphodiesterase 1 (Homo sapiens, UniProt P54750+Q01064+Q14123)
Experiment: Inhibition of [Ca(2+)]/calmodulin dependent phosphodiesterase PDE 1 of guinea pig ventricle
Assay type: protein assay, Cavia porcellus
Conditions: target entry is the homologue from another species
measurement-name: IC50 (µM)

> print(dat)
                         sample.smiles  units.label  value.operator  value
1  CSc1ccc(C(=O)c2[nH]c(=O)[nH]c2C)cc1           µM               >   1000
2   COc1ccc(-c2nc3ccc[nH]c-3n2)c(OC)c1           µM               =    265
3            Nc1cc(-c2ccncc2)c[nH]c1=O           µM               >   1000
4         Cn1c(=O)c2nc[nH]c2n(C)c1=O.O           µM               =    320

* * *

Molecular target: cGMP-dependent 3',5'-cyclic phosphodiesterase (Homo sapiens, UniProt O00408)
Sequence (O00408 whole entry): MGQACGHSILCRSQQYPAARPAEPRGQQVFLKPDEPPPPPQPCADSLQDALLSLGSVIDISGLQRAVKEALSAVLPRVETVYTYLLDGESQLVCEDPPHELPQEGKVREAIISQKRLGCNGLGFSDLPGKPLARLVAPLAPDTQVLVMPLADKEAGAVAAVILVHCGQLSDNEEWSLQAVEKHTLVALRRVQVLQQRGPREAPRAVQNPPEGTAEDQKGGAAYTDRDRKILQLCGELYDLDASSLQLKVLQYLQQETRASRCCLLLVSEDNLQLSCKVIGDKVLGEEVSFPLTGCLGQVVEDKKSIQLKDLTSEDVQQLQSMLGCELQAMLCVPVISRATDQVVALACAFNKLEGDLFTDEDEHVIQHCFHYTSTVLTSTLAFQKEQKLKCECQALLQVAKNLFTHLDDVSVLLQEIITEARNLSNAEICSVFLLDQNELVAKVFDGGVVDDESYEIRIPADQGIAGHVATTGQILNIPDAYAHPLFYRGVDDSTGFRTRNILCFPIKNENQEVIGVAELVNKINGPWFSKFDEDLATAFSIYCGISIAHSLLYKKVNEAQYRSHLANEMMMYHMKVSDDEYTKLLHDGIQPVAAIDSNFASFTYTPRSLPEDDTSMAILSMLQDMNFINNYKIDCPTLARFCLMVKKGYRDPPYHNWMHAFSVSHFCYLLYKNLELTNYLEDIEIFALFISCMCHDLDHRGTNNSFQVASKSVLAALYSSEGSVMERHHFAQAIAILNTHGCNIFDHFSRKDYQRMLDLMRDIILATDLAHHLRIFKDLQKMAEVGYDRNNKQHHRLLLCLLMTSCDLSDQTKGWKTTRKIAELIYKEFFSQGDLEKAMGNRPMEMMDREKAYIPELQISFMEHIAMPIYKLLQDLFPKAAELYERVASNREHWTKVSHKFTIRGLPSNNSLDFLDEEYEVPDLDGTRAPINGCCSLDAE
Assay: Inhibition of cyclic GMP sensitive phosphodiesterase PDE 2 of guinea pig ventricle
Design: species or system Cavia porcellus
Conditions: target entry is the homologue from another species
Mark Fulfilled only when IC50 stays strictly below 200 µM. Values equal to the cut-off are Not fulfilled.

> print(dat)
                         sample.smiles  qualitative.label
1  CSc1ccc(C(=O)c2[nH]c(=O)[nH]c2C)cc1      Not fulfilled
2            Nc1cc(-c2ccncc2)c[nH]c1=O      Not fulfilled
3         Cn1c(=O)c2nc[nH]c2n(C)c1=O.O      Not fulfilled
4   COc1ccc(-c2nc3ccc[nH]c-3n2)c(OC)c1          Fulfilled

* * *

Catalogue of IC50 readings, one per entry.
Biological target: UniProt O00408
Experiment: Inhibition of cyclic GMP sensitive phosphodiesterase PDE 2 of human lung
measurement-name: IC50 (µM)

> print(dat)
                                   molecule     test.system  units.label  value
1  CCCCc1cc2c(=O)cc(C(=O)O)[nH]c2c2c(=O)cc(C(=O)O)[nH]c12 [BUFROLIN]  UniProt O00408           µM     80
2  CC(C)Cn1c(=O)n(C)c(=O)c2nc[nH]c21 [ISOBUTYLMETHYLXANTHINE]  UniProt O00408           µM     12
3  CCCCOc1cc(CC2CNC(=O)N2)ccc1OC (stereo not drawn) [RO-201724]  UniProt O00408           µM    390
